Flu-Abs values by entry
assayProcedure: Spectroscopic measurements (absorption, emission, quantum yield, extinction coefficient)
Type: physicochemical
measurementParameters: difference of emission and absorption maxima
Give the figure by itself; no unit, no explanation.

Illustrative cases are given below, each with its answer.
• CC1=CC(/C=C/c2ccc(-c3ccc(Br)cc3)o2)=[N+]2C1=C(c1ccc(NC(=O)CCl)cc1)c1cccn1[B-]2(F)F = 151
• COc1ccc(/C=C/C2=[N+]3C(=C(c4ccc(NC(=O)CCl)cc4)c4cccn4[B-]3(F)F)C(C)=C2)cc1[N+](=O)[O-] = 21
• Cc1cc(/C=C/c2cc(OC(F)(F)F)ccc2O)n2c1C(c1ccc(NC(=O)CCl)cc1)=C1C=CC=[N+]1[B-]2(F)F = 23
• CSc1ccccc1/C=C/C1=[N+]2C(=C(c3ccc(NC(=O)CCl)cc3)c3cccn3[B-]2(F)F)C(C)=C1 = 26
• Cc1cc(/C=C/c2ccc(-c3ccccc3)o2)n2c1C(c1ccc(NC(=O)CCl)cc1)=C1C=CC=[N+]1[B-]2(F)F = 58

Query: Supply reported Flu-Abs belonging to this compound: COc1cc(O)c(/C=C/C2=[N+]3C(=C(c4ccc(NC(=O)CCl)cc4)c4cccn4[B-]3(F)F)C(C)=C2)c(OC)c1
Response: 50

Query: Supply reported Flu-Abs belonging to this compound: CCOc1ccc(/C=C/C2=[N+]3C(=C(c4ccc(NC(=O)CCl)cc4)c4cccn4[B-]3(F)F)C(C)=C2)cc1
Response: 33
